System: PC-3
experiment: Cytotoxicity against human PC3 cells after 3 days by SRB assay
Format: functional, cell-based
conditionSummary: PC-3, 72 h
measurementName: log10 of EC50 (log10 of the value in µg/mL)
A value of 2 here means EC50 of 100 in µg/mL, since values are log10.

### Prompt Determine its reported log10 of EC50: COc1cc(O)c(C(=O)/C=C/c2cccnc2)cc1CN1CCOCC1
### Response -0.08

* * *

Tested on: PC-3
experiment: Cytotoxicity against human PC3 cells after 3 days by SRB assay
Format: functional, cell-based
conditionSummary: PC-3, 72 h
Overview of reported EC50 across a group of molecules:
Express the result in µg/mL but write the number alone.

Record excerpt, results attached:
[[record]]
smilesinput = "CC(C)Oc1ccc(C(=O)/C=C/c2cccs2)c(O)c1CN1CCOCC1"
measurementname = "EC50"
assayresult = 2.8

[[record]]
smilesinput = "O=C(/C=C/c1ccncc1)c1ccc(O)c(CN2CCOCC2)c1"
measurementname = "EC50"
assayresult = 0.1

[[record]]
smilesinput = "Cc1ccsc1/C=C/C(=O)c1cccc(O)c1CN1CCOCC1"
measurementname = "EC50"
assayresult = 2.73

[[record]]
smilesinput = "CCOc1cc(O)c(C(=O)/C=C/c2ccccn2)cc1CN1CCOCC1"
measurementname = "EC50"
assayresult = 3.14

[[record]]
smilesinput = "O=C(/C=C/c1cccs1)c1cccc(O)c1CN1CCOCC1"
measurementname = "EC50"
assayresult = 1.09

[[record]]
smilesinput = "O=C(/C=C/c1ccco1)c1cccc(O)c1CN1CCOCC1"
measurementname = "EC50"
assayresult = 3.8

[[record]]
smilesinput = "COc1cc(O)c(C(=O)/C=C/c2cccs2)cc1CN1CCOCC1"
measurementname = "EC50"
assayresult = 6.6

[[record]]
smilesinput = "O=C(/C=C/c1ccccn1)c1ccc(O)c(CN2CCOCC2)c1"
measurementname = "EC50"
assayresult = 0.31


### Prompt Determine its reported EC50: COc1ccc(C(=O)/C=C/c2ccccn2)c(O)c1CN1CCOCC1
### Response 10.5

### Prompt Determine its reported EC50: O=C(/C=C/c1ccccc1)c1cccc(O)c1CN1CCOCC1
### Response 0.33

* * *

Test system: PC-3
experiment: Cytotoxicity against human PC3 cells after 3 days by SRB assay
Assay type: functional, cell-based
conditionSummary: PC-3, 72 h
Overview of reported EC50 across a group of compounds:
Express the result in µg/mL but write the number alone.

[[record]]
smilesinput = "O=C(/C=C/c1cccs1)c1ccc(O)c(CN2CCOCC2)c1"
measurementname = "EC50"
unitstext = "µg/mL"
assayresult = 6.49


### Prompt Determine its reported EC50: COc1ccc(/C=C/C(=O)c2cccs2)c(CN2CCCCC2)c1O
### Response 2.02

### Prompt Determine its reported EC50: COc1ccc(/C=C/C(=O)c2ccco2)c(CN2CCCCC2)c1O
### Response 3.07

### Prompt Determine its reported EC50: COc1cc(O)c(C(=O)/C=C/c2ccccc2)cc1CN1CCOCC1
### Response 0.78

* * *

Test system: PC-3
experiment: Cytotoxicity against human PC3 cells after 3 days by SRB assay
Format: functional, cell-based
conditionSummary: PC-3, 72 h
measurementName: EC50 (µg/mL)
Express the result in µg/mL but write the number alone.

Record excerpt, results attached:
[[record]]
smilesinput = "O=C(/C=C/c1cccnc1)c1ccc(O)c(CN2CCOCC2)c1"
testedtarget = "PC-3"
unitstext = "µg/mL"
assayresult = 0.68

[[record]]
smilesinput = "COc1ccc(/C=C/C(=O)c2cccnc2)c(CN2CCCCC2)c1O"
testedtarget = "PC-3"
unitstext = "µg/mL"
assayresult = 6.77

[[record]]
smilesinput = "COc1cc(O)c(C(=O)/C=C/c2ccco2)cc1CN1CCOCC1"
testedtarget = "PC-3"
unitstext = "µg/mL"
assayresult = 16.8


Next molecule, EC50 to be filled in.
### Prompt Determine its reported EC50: O=C(/C=C/c1cccnc1)c1ccc(CN2CCOCC2)c(O)c1
### Response 0.9
